Target: Wee1-like protein kinase (Homo sapiens)
Assay: Wee1 degradation inhibitors, primary screen, cell-based, HeLa, Wee1K328M-luciferase, luminescence (AID 1321);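 also: cells exposed to compound for 20 h before luminescence read; 0% = DMSO alone and 100% = MG132 at 30 µM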
Details: HeLa Luc-Wee1K328M stability, at 5 µM, hits give high values, 100% = proteasome inhibitor MG132 effect
The campaign covered roughly 220,000 compounds. About 2,600 (1.2%) were called active. The sample holds actives, similar compounds and a random draw of the others, so the mix is not that of the screen.
experimental_readout: reporter increase (%)
Respond numerically; units are % and should not be typed.

Prompt line: I'd like to know its reporter increase. The molecule in question is `Cc1ccc(S(=O)(=O)/N=C(/NC(=S)Nc2c(C)n(C)n(-c3ccccc3)c2=O)c2ccccc2)cc1`
Response line: -0.69

Prompt line: Name the reported reporter increase value associated with the molecule `Cc1ccc(-c2nc3ccccc3[nH]c2=O)cc1`
Response line: 9.13

Prompt line: // query reporter increase value for entry CN(CC(O)COc1ccc(S(=O)(=O)N2CCOCC2)cc1Cl)C1CCCCC1 (stereo not given)
Response line: -3.05

Prompt line: May I ask what reporter increase has been recorded for `CCOC(=O)c1c(NC(=O)c2cccs2)sc(C)c1C` ?
Response line: -0.63

Prompt line: Entry `O=C(O)c1cccc2c1C(=O)N(C1CCCCC1)C2` has what reporter increase?
Response line: -0.13
